conditions: Ebola virus entry assay, ratio channel
Calls of active or inactive are those of the source.
Possible outcomes: active, inactive

[[record]]
compound = "CC(Cc1ccccc1)NCCCCl (stereo not drawn)"
assigned_category = "active"

[[record]]
compound = "CN(Cc1ccc(C(C)(C)C)cc1)Cc1cccc2ccccc12"
assigned_category = "inactive"

[[record]]
compound = "C/C=C(/C(=C/C)c1ccc(O)cc1)c1ccc(O)cc1"
assigned_category = "inactive"

[[record]]
compound = "CC(C)C[C@@H]1[C@H](c2ccccc2)OC(=O)N1CCCN1CCCCCC1"
assigned_category = "active"

[[record]]
compound = "Cc1cccc(C)c1NC(=O)CN1CCCC1"
assigned_category = "inactive"

[[record]]
compound = "COc1cc(N)c(Cl)cc1C(=O)NC1CCN(CCCOc2ccc(F)cc2)CC1OC (stereo not drawn)"
assigned_category = "active"

[[record]]
compound = "CCCOc1ccc(C(=O)OCCN(CC)CC)cc1N"
assigned_category = "active"

[[record]]
compound = "Cc1c(C)n(CCN(C)C)c2ccc(C(=O)OCCN(C)C)cc12"
assigned_category = "active"

[[record]]
compound = "CC1CCCCN1CCCOC(=O)c1ccc(OC2CCCCC2)cc1 (stereo not drawn)"
assigned_category = "active"

[[record]]
compound = "CC(=O)N(CC(=O)N(C)C)c1ccccc1"
assigned_category = "inactive"

[[record]]
compound = "CCCCOc1ccc(OCCCN2CCOCC2)cc1"
assigned_category = "active"

[[record]]
compound = "C/C=C/C(=O)N(CC)c1ccccc1C"
assigned_category = "inactive"

[[record]]
compound = "CC(=O)Nc1ccc(OCCOCCOc2ccc(NC(C)=O)cc2)cc1"
assigned_category = "inactive"


====

assay: Primary qHTS for inhibitors of MERS-S pseudo-typed particle cell entry (AID 1479149); conditions: MERS-S pseudotyped particle entry, luciferase; series mostly up to 57.1 µM; further: nearly all actives have a fitted effect of over 60% in size
Inconclusive results are not listed. Activity calls are given as the source filed them. Calls follow the shape of the full dose curve.
Possible outcomes: true (1) for active, false (0) for inactive

[[record]]
compound = "Cc1cccc(N(C)C(=S)Oc2ccc3c(c2)CCC3)c1"
assigned_category = "false (0)"

[[record]]
compound = "O=c1[nH]c(=O)n([C@H]2C[C@H](O)[C@@H](CO)O2)cc1C(F)(F)F"
assigned_category = "true (1)"

[[record]]
compound = "Nc1c(NC/C=C\\COc2cc(CN3CCCCC3)ccn2)c(=O)c1=O"
assigned_category = "false (0)"

[[record]]
compound = "CCC1(c2cccc(O)c2)CCCCN(C)C1 (stereo not given)"
assigned_category = "false (0)"

[[record]]
compound = "CO/N=C(/C(=O)N[C@@H]1C(=O)N2C(C(=O)O)=C(Cn3nnc(C)n3)CS[C@H]12)c1csc(N)n1"
assigned_category = "false (0)"

[[record]]
compound = "CCCCNc1ccc(C(=O)OCCN(CC)CC)cc1"
assigned_category = "false (0)"

[[record]]
compound = "COc1ccnc2c1CCCCC2S(=O)c1nc2ccccc2[nH]1 (stereo not given)"
assigned_category = "false (0)"

[[record]]
compound = "CN1CCCN=C1COC(=O)C(O)(c1ccccc1)C1CCCCC1 (stereo not given)"
assigned_category = "false (0)"

[[record]]
compound = "CCCCC(=O)O[C@]1(C(=O)CO)[C@@H](C)C[C@H]2[C@@H]3CCC4=CC(=O)C=C[C@]4(C)[C@@]3(F)[C@@H](O)C[C@@]21C"
assigned_category = "false (0)"

[[record]]
compound = "Cc1ncc(COP(=O)(O)O)c(C=O)c1O"
assigned_category = "false (0)"


====

experiment: MultiTox-Fluor Cytotoxicity Assay - LYMP1-001 - Dead Cells (AID 946); details: LYMP1-001 lymphoblastoid cells, dead-cell protease fluorescence; series mostly up to 92.2 µM;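 further: cells exposed to compound for 16 h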
Inconclusive results are not listed. Calls of active or inactive are those of the source. Calls come from the whole dose curve; as a rule, active = well fitted cell-killing curve with a large enough effect; inconclusive = small, poorly fitted or top-dose-only effect, or effect the other way; inactive = flat fitted curve, though single readings scatter.
Possible outcomes: Y for active, N for inactive

[[record]]
chemical_structure = "O=C(CCl)c1ccc(Cl)cc1Cl"
assigned_category = "Y"

[[record]]
chemical_structure = "CN(C)C(=S)SSC(=S)N(C)C"
assigned_category = "Y"

[[record]]
chemical_structure = "COP(=O)(OC)OC=C(Cl)Cl"
assigned_category = "N"

[[record]]
chemical_structure = "CC[n+]1c(-c2ccccc2)c2cc(N)ccc2c2ccc(N)cc21"
assigned_category = "Y"


====

test system: W2; assay: qHTS profiling for inhibitors of Plasmodium falciparum proliferation (AID 504749); further: nearly all actives have a fitted effect of over 60% in size; conditions: P. falciparum in erythrocytes, SYBR Green DNA, 72 h; series mostly up to 28.7 µM
Results filed as inconclusive are left out. Calls of active or inactive are those of the source. The call rests on the fitted dose curve; in most records, active means well fitted inhibition curve with a large enough effect; inconclusive means small, poorly fitted or top-dose-only effect; inactive means flat fitted curve, though single readings scatter.
Possible outcomes: 1.0 for active, 0.0 for inactive

[[record]]
chemical_structure = "CN1CCc2cc(Cl)c(O)cc2[C@H]2c3ccccc3CC[C@@H]21"
assayed_target = "W2"
assigned_category = 1.0

[[record]]
chemical_structure = "CCC(=O)O[C@H]1CC[C@H]2[C@@H]3CCC4=CC(=O)CC[C@]4(C)[C@H]3CC[C@]12C"
assayed_target = "W2"
assigned_category = 0.0

[[record]]
chemical_structure = "Cc1ncc2n1-c1ccc(Cl)cc1C(c1ccccc1F)=NC2"
assayed_target = "W2"
assigned_category = 0.0

[[record]]
chemical_structure = "CN1C(=O)[C@@H](NC(=O)c2cc3ccccc3[nH]2)N=C(c2ccccc2)c2ccccc21"
assayed_target = "W2"
assigned_category = 1.0

[[record]]
chemical_structure = "CCCCCCCCC(=O)NCc1ccc(O)c(OC)c1"
assayed_target = "W2"
assigned_category = 0.0

[[record]]
chemical_structure = "NC(=O)OCCCc1ccccc1"
assayed_target = "W2"
assigned_category = 0.0

[[record]]
chemical_structure = "NCc1cccnc1"
assayed_target = "W2"
assigned_category = 0.0

[[record]]
chemical_structure = "C#C[C@]1(O)CC[C@H]2[C@@H]3CCC4=CC(=O)CCC4=C3C=C[C@@]21CC"
assayed_target = "W2"
assigned_category = 1.0

[[record]]
chemical_structure = "Cc1ccc(N=CN(C)C=Nc2ccc(C)cc2C)c(C)c1"
assayed_target = "W2"
assigned_category = 0.0

[[record]]
chemical_structure = "C[N+](C)(C)CCOC(=O)C(O)(c1ccccc1)c1ccccc1"
assayed_target = "W2"
assigned_category = 0.0

[[record]]
chemical_structure = "OC(c1ccccc1)(c1ccccc1)C1CCNCC1"
assayed_target = "W2"
assigned_category = 0.0


====

conditions: Ebola virus entry assay, ratio channel
Active and inactive are the calls of the source.
measured endpoint: AC50

[[record]]
compound = "O=c1cc(CO)occ1O"
recorded_value = "inactive"

[[record]]
compound = "CCCc1nc(C)c2c(=O)[nH]c(-c3cc(S(=O)(=O)N4CCN(CC)CC4)ccc3OCC)nn12"
recorded_value = "inactive"

[[record]]
compound = "CC(O)COc1ccccc1 (configuration not stated)"
recorded_value = "inactive"

[[record]]
compound = "FC(F)(F)C(F)(F)C(F)(F)C(F)(F)C(F)(F)C(F)(F)C(F)(F)C(F)(F)Br"
recorded_value = "inactive"

[[record]]
compound = "CC1(C)OC[C@@H](COC(=O)CCc2ccc(OC[C@@H](O)CNCCNC(=O)N3CCOCC3)cc2)O1"
recorded_value = "inactive"

[[record]]
compound = "Cc1c(F)cc2c(=O)c(C(=O)O)cn3c2c1CCC3C (configuration not stated)"
recorded_value = "inactive"

[[record]]
compound = "CCNc1nc(Cl)nc(NCC)n1"
recorded_value = "inactive"

[[record]]
compound = "CCOc1ccc2nc(S(N)(=O)=O)sc2c1"
recorded_value = "inactive"

[[record]]
compound = "CCCCCCCCCCCCOS(=O)(=O)O"
recorded_value = "inactive"

[[record]]
compound = "NCc1ccccc1Sc1ccccc1CO"
recorded_value = "20 µM (active)"

[[record]]
compound = "COc1ccc(S(=O)(=O)N2c3ccc(Cl)cc3[C@@](O)(c3ccccc3Cl)[C@H]2C(=O)N2CCC[C@@H]2C(N)=O)cc1OC"
recorded_value = "10 µM (active)"

[[record]]
compound = "Oc1c(Cl)cc(Cl)cc1Sc1cc(Cl)cc(Cl)c1O"
recorded_value = "22.4 µM (active)"

[[record]]
compound = "CC[n+]1c(-c2ccccc2)c2cc(N)ccc2c2ccc(N)cc21"
recorded_value = "14.1 µM (active)"

[[record]]
compound = "CC(=O)N(CC(O)CN(C(C)=O)c1c(I)c(C(=O)NCC(O)CO)c(I)c(C(=O)NCC(O)CO)c1I)c1c(I)c(C(=O)NCC(O)CO)c(I)c(C(=O)NCC(O)CO)c1I (configuration not stated)"
recorded_value = "inactive"

[[record]]
compound = "CCCc1cc(C(N)=S)ccn1"
recorded_value = "inactive"

[[record]]
compound = "CC(=O)c1ccc2c(c1)N(CCCN1CCC(CCO)CC1)c1ccccc1S2"
recorded_value = "2.82 µM (active)"

[[record]]
compound = "CN1[C@@H]2CC[C@H]1CC(OC(=O)c1c[nH]c3ccccc13)C2 (some centres not stated)"
recorded_value = "inactive"

[[record]]
compound = "NC(CSCC(=O)O)C(=O)O (configuration not stated)"
recorded_value = "inactive"

[[record]]
compound = "COc1cc(C(=O)OCCCN2CCCN(CCCOC(=O)c3cc(OC)c(OC)c(OC)c3)CC2)cc(OC)c1OC"
recorded_value = "12.6 µM (active)"

[[record]]
compound = "COc1cccc2c1C(=O)c1c(O)c3c(c(O)c1C2=O)C[C@@](O)(C(C)=O)C[C@@H]3O[C@H]1C[C@H](N)[C@H](O)[C@H](C)O1"
recorded_value = "5.01 µM (active)"

[[record]]
compound = "Cc1c(C)c2c(c(C)c1OC(=O)CCC(=O)OCCO)CC[C@@](C)(CCC[C@H](C)CCC[C@H](C)CCCC(C)C)O2"
recorded_value = "inactive"

[[record]]
compound = "CCOC(=O)c1ccc(NC(=O)CN2CCCCC2)cc1"
recorded_value = "inactive"

